# Tested on: Plasmodium berghei ANKA liver stage in HepG2-A16-CD81
# Assay overview: % inhibition of liver stage parasite viability (luciferase); higher = more inhibition
# Applied conditions: 5 µM; 48 h
// map % inhibition of liver stage parasite viability to label using lower segment: < 10%; middle segment: ≥ 10% and < 40%; upper segment: ≥ 40%

# Molecule, Category
data = [
    ("CC(C)N(c1cc(-c2ccccc2)sc1C(=O)O)C(=O)[C@H]1CC[C@H](C)CC1", "middle segment"),
    ("CC(N)C12CC3CC(CC(C3)C1)C2 (centres undefined)", "lower segment"),
    ("OCCC#Cc1nc(-c2ccc(F)cc2)c(-c2ccncc2)n1CCCc1ccccc1", "middle segment"),
    ("C=CCN(C(=O)OCc1ccc([N+](=O)[O-])cc1)C1CCN(CC[C@](C)(CN(C)S(=O)(=O)c2ccccc2)c2ccccc2)CC1", "upper segment"),
    ("CSc1ccc2c(c1)C(N1CCN(C)CC1)Cc1ccccc1S2 (centres undefined)", "middle segment"),
    ("CNC(=O)C1O[C@@H](n2cnc3c(NCc4cccc(I)c4)nc(Cl)nc32)[C@H](O)[C@@H]1O (some centres undefined)", "middle segment"),
    ("CC[C@H](NC(=O)[C@H](C)NC)C(=O)N1C[C@@H](O)C[C@H]1Cc1c(-c2[nH]c3cc(F)ccc3c2C[C@@H]2C[C@H](O)CN2C(=O)[C@H](CC)NC(=O)[C@H](C)NC)[nH]c2cc(F)ccc12", "middle segment"),
    ("COc1cc(Cc2cc(N)nc(N)n2)cc(OC)c1OC", "upper segment"),
    ("Oc1cccc(C(Nc2nccs2)c2ccc3cccnc3c2O)c1 (centres undefined)", "middle segment"),
    ("CC1CN(c2ncnc3c2c(-c2ccccc2)cn3-c2ccc(F)cc2)CC(C)O1 (centres undefined)", "middle segment"),
    ("O=C(NCc1cccc2ccccc12)c1cccs1", "lower segment"),
    ("Cc1cc(CCOc2c(C)cc(-c3nnn(C)n3)cc2C)on1", "middle segment"),
    ("Cc1ccc(Oc2ccccc2-c2csc(NC3=NCCCN3)n2)c(C)c1", "upper segment"),
    ("Nc1nc(-c2ccccc2)nc2c1ncn2[C@@H]1O[C@H](COS(=O)(=O)NC(=O)c2ccccc2O)[C@@H](O)[C@H]1O", "lower segment"),
    ("Cc1c(OCC(F)(F)F)ccnc1CS(=O)c1nc2ccccc2[nH]1 (centres undefined)", "lower segment"),
    ("CC(=O)O[C@H]1C[C@@]2(C)[C@@H](C[C@@H](O)[C@H]3[C@@]4(C)CC[C@@H](O)[C@@H](C)[C@@H]4CC[C@@]32C)/C1=C(\\CCC=C(C)C)C(=O)O", "middle segment"),
    ("CC[C@@]1(O)C(=O)OCc2c1cc1n(c2=O)Cc2cc3c([N+](=O)[O-])cccc3nc2-1", "upper segment"),
    ("O=C(NCc1ccc(F)cc1)c1c(O)c2ncccc2[nH]c1=O", "middle segment"),
    ("Nc1ccc2oc(=O)ccc2c1I", "lower segment"),
    ("Cc1cc(CCCOc2c(C)cc(-c3noc(C(F)(F)F)n3)cc2C)on1", "lower segment"),
    ("Nc1nc(O)ncc1F", "lower segment"),
    ("CC[C@H]1OC(=O)[C@H](C)[C@@H](O[C@H]2C[C@@](C)(OC)[C@@H](O)[C@H](C)O2)[C@H](C)[C@@H](O[C@@H]2O[C@H](C)C[C@H](N(C)C)[C@H]2O)[C@](C)(O)C[C@@H](C)C(=O)[C@H](C)[C@@H](O)[C@]1(C)O", "middle segment"),
    ("CCOc1ccc(/C=N/NC(=O)C2CC2c2ccc(C(C)(C)C)cc2)cc1OCC (centres undefined)", "middle segment"),
    ("CN(C)CCCOc1ccc(-c2ccc3ncc4c(c3c2)n(C2CCOCC2)c(=O)n4C)cn1", "upper segment"),
    ("C[C@H]1COc2c(N3CCN(C)CC3)c(F)cc3c(=O)c(C(=O)O)cn1c23", "middle segment"),
    ("O=C(Nc1ccc(F)cc1)c1nn(-c2ccccc2)c(=O)cc1Cl", "lower segment"),
    ("NC(=O)c1[nH]c2ccc(S(N)(=O)=O)cc2c1-c1ccccc1", "middle segment"),
    ("O=C(O)c1ccc(-n2nc(-c3ccccc3O)nc2-c2ccccc2O)cc1", "middle segment"),
]
